These measurements were taken from patent US20210275641A1.

Target: T1, IL-2 receptor of the human CD4 positive T cell clone 3F8 (expresses CD25 and CD122) (human, UniProt P01589 22-272; P14784 27-551)
T1 sequence 1: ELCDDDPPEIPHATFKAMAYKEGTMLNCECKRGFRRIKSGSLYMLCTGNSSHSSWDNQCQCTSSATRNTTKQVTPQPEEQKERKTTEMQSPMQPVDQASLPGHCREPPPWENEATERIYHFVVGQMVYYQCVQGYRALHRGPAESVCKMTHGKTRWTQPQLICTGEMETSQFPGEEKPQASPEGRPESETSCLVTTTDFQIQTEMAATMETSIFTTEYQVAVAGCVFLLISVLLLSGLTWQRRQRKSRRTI
T1 sequence 2: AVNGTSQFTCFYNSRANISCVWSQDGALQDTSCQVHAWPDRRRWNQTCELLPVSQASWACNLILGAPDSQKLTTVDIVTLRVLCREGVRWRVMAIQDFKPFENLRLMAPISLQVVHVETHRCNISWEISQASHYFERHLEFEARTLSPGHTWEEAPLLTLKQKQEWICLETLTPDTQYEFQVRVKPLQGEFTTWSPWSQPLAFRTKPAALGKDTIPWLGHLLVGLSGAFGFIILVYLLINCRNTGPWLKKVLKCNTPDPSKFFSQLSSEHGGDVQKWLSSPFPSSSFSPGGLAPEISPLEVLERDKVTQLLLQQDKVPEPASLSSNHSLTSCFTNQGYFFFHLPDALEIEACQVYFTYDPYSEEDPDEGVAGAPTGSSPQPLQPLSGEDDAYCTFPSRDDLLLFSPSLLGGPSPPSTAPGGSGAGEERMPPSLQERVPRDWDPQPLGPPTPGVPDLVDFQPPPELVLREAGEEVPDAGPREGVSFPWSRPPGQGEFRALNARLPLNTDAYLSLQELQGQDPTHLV
Assay: cell-based or functional assay
OBSERVED PROPERTY: IFNγ Production IC50 (pM), 3F8 cells

BINDER: hIL2 mutein EEK (L18E, Q22E, Q126K) (ligand) APTSSSTKKTQLQLEHLELDLEMILNGINNYKNPKLTRMLTFKFYMPKKATELKHLQCLEEELKPLEEVLNLAQSKNFHLRPRDLISNINVIVLELKGSETTFMCEYADETATIVEFLNRWITFCKSIISTLT
OBSERVED PROPERTY: IFNγ Production IC50 (pM), 3F8 cells
RESULT: 58.7 pM

BINDER: hIL2 mutein AEK (L18A, Q22E, Q126K) (ligand) APTSSSTKKTQLQLEHLALDLEMILNGINNYKNPKLTRMLTFKFYMPKKATELKHLQCLEEELKPLEEVLNLAQSKNFHLRPRDLISNINVIVLELKGSETTFMCEYADETATIVEFLNRWITFCKSIISTLT
OBSERVED PROPERTY: IFNγ Production IC50 (pM), 3F8 cells
RESULT: 19 pM

BINDER: hIL2 mutein REN (L18R, Q22E, Q126N) (ligand) APTSSSTKKTQLQLEHLRLDLEMILNGINNYKNPKLTRMLTFKFYMPKKATELKHLQCLEEELKPLEEVLNLAQSKNFHLRPRDLISNINVIVLELKGSETTFMCEYADETATIVEFLNRWITFCNSIISTLT
OBSERVED PROPERTY: IFNγ Production IC50 (pM), 3F8 cells
RESULT: 15.7 pM

BINDER: hIL2 mutein REM (L18R, Q22E, Q126M) (ligand) APTSSSTKKTQLQLEHLRLDLEMILNGINNYKNPKLTRMLTFKFYMPKKATELKHLQCLEEELKPLEEVLNLAQSKNFHLRPRDLISNINVIVLELKGSETTFMCEYADETATIVEFLNRWITFCMSIISTLT
OBSERVED PROPERTY: IFNγ Production IC50 (pM), 3F8 cells
RESULT: 12.7 pM
